- PROTOCOL DESCRIPTION: Plasma and tissue levels after single oral administration in cynomolgus monkeys (LC-MS/MS)
- Assay type: in vivo
- SETUP CONDITIONS: male, cynomolgus monkey, inguinal adipose tissue, 20 mg/kg oral, read-out: tissue levels (in relative value), inguinal adipose tissue
PARAMETER MEASURED: concentration at 4 h

>  <STRUCTURE AS SMILES>
CN1C(C(=O)c2ccc3ccccc3c2)=C([O-])c2ccccc2S1(=O)=O.[K+]

>  <PARAMETER MEASURED>
concentration at 4 h

>  <ASSAY RESULT>
6100 ng/g

$$$$

---

- PROTOCOL DESCRIPTION: Plasma and tissue levels after single oral administration in cynomolgus monkeys (LC-MS/MS)
- Type: in vivo
- SETUP CONDITIONS: male, cynomolgus monkey, plasma, 20 mg/kg oral, ± SEM, n=3, read-out: mean plasma levels

>  <STRUCTURE AS SMILES>
CN1C(C(=O)c2ccc3ccccc3c2)=C([O-])c2ccccc2S1(=O)=O.[K+]

>  <concentration at 4 h>
17000 ng/mL

$$$$

---

- PROTOCOL DESCRIPTION: Plasma level by LC/MS after single oral administration in C57BL/6N mice
- Format: in vivo
- SETUP CONDITIONS: male, C57BL/6N, mouse, plasma, po, 2.5 mg/kg, 2.5 mg/kg oral, 1 h, parent molecule by LC/MS

>  <STRUCTURE AS SMILES>
CN1C(C(=O)c2ccc3ccccc3c2)=C([O-])c2ccccc2S1(=O)=O.[K+]

>  <concentration at 1 h, ng/mL>
4240

$$$$

---

- PROTOCOL DESCRIPTION: Plasma and tissue levels after single oral administration in cynomolgus monkeys (LC-MS/MS)
- Format: in vivo
- SETUP CONDITIONS: male, cynomolgus monkey, subcutaneous adipose tissue, 20 mg/kg oral, read-out: tissue levels (in relative value), subcutaneous adipose tissue
PARAMETER MEASURED: concentration at 4 h (ng/g)

>  <COMPOUND>
CN1C(C(=O)c2ccc3ccccc3c2)=C([O-])c2ccccc2S1(=O)=O.[K+] [Compound 1K]

>  <PARAMETER MEASURED>
concentration at 4 h

>  <MEASUREMENT UNITS>
ng/g

>  <ASSAY RESULT>
1300

$$$$

---

- PROTOCOL DESCRIPTION: Plasma level by LC/MS after single oral administration in C57BL/6N mice
- Type: in vivo
- SETUP CONDITIONS: male, C57BL/6N, mouse, plasma, po, 10 mg/kg, 10 mg/kg oral, 4 h, parent molecule by LC/MS
PARAMETER MEASURED: concentration at 4 h (ng/mL)

>  <STRUCTURE AS SMILES>
CN1C(C(=O)c2ccc3ccccc3c2)=C([O-])c2ccccc2S1(=O)=O.[K+]

>  <MEASUREMENT UNITS>
ng/mL

>  <ASSAY RESULT>
6810

$$$$

---

- PROTOCOL DESCRIPTION: Plasma and tissue levels after single oral administration in cynomolgus monkeys (LC-MS/MS)
- Type: in vivo
- SETUP CONDITIONS: male, cynomolgus monkey, 20 mg/kg oral, liver, read-out: mean hepatic levels (in relative value)
PARAMETER MEASURED: concentration at 4 h

>  <STRUCTURE AS SMILES>
CN1C(C(=O)c2ccc3ccccc3c2)=C([O-])c2ccccc2S1(=O)=O.[K+]

>  <ASSAY RESULT>
13600 ng/g

$$$$

---

A collection of compounds and their measured % inhibition at 4 h
- SYSTEM NAME: human 11β-HSD type 1 (Homo sapiens, UniProt P28845)
- Sequence (P28845 whole entry): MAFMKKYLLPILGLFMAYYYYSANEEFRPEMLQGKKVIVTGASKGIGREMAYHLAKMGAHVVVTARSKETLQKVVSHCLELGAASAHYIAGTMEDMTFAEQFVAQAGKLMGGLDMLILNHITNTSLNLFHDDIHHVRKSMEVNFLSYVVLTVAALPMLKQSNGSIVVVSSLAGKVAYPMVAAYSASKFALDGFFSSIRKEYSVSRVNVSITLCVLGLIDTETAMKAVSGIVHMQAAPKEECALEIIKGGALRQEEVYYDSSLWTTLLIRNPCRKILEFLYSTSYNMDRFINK
- PROTOCOL DESCRIPTION: Plasma bioactivity after single oral administration in C57BL/6N mice, read as inhibition of human 11β-HSD type 1 (SPA)
- Type: in vivo
- SETUP CONDITIONS: mouse plasma, 4 h after 10 mg/kg oral

>  <COMPOUND>
C1CCc2nnc(C34CC5CC(CC(C5)C3)C4)n2CC1 [Compound 3, reference compound]

>  <MEASUREMENT UNITS>
%

>  <% inhibition at 4 h>
22

$$$$
>  <COMPOUND>
CN1C(C(=O)c2ccc3ccccc3c2)=C([O-])c2ccccc2S1(=O)=O.[K+] [Compound 1K]

>  <MEASUREMENT UNITS>
%

>  <% inhibition at 4 h>
86

$$$$
>  <COMPOUND>
CN1C(C(=O)c2ccc3ccccc3c2)=C(O)c2ccccc2S1(=O)=O [Compound 1]

>  <MEASUREMENT UNITS>
%

>  <% inhibition at 4 h>
81

$$$$
>  <COMPOUND>
CN1C(C(=O)c2ccc(-c3ccc(C#N)cc3)cc2)=C([O-])c2ccccc2S1(=O)=O.[K+] [Compound 2K, reference compound]

>  <MEASUREMENT UNITS>
%

>  <% inhibition at 4 h>
86

$$$$

---

- SYSTEM NAME: human 11β-HSD type 1 (Homo sapiens, UniProt P28845)
- PROTOCOL DESCRIPTION: Plasma bioactivity after single oral administration in C57BL/6N mice, read as inhibition of human 11β-HSD type 1 (SPA)
- Format: in vivo
- SETUP CONDITIONS: mouse plasma, 1 h after 10 mg/kg oral
- Method: The evaluation is made in on 4- to 6-week-old non-fasted male C57BL/6N strain mice. The compounds to be tested or the vehicle (0.5% methylcellulose in water, at 10 ml/kg) are administered orally; n=3 mice per treatment. Blood samples are collected 1 h and 4 h after administration; the tubes are centrifuged to obtain plasma and frozen at −70° C. until bioanalysis. […] Percent inhibition (versus mice treated with carrier) is calculated for each dose.
PARAMETER MEASURED: % inhibition at 1 h

>  <COMPOUND>
C1CCc2nnc(C34CC5CC(CC(C5)C3)C4)n2CC1 [Compound 3, reference compound]

>  <ASSAY RESULT>
93%

$$$$
>  <COMPOUND>
CN1C(C(=O)c2ccc3ccccc3c2)=C(O)c2ccccc2S1(=O)=O

>  <ASSAY RESULT>
81%

$$$$
>  <COMPOUND>
CN1C(C(=O)c2ccc3ccccc3c2)=C([O-])c2ccccc2S1(=O)=O.[K+]

>  <ASSAY RESULT>
91%

$$$$
>  <COMPOUND>
CN1C(C(=O)c2ccc(-c3ccc(C#N)cc3)cc2)=C([O-])c2ccccc2S1(=O)=O.[K+] [Compound 2K, reference compound]

>  <ASSAY RESULT>
84%

$$$$
